This listing pairs compounds with measured inhibition.
subject.of.test: Tyrosine-protein kinase Blk (Homo sapiens) (UniProt P51451)
Sequence (P51451 2-505 limits assumed): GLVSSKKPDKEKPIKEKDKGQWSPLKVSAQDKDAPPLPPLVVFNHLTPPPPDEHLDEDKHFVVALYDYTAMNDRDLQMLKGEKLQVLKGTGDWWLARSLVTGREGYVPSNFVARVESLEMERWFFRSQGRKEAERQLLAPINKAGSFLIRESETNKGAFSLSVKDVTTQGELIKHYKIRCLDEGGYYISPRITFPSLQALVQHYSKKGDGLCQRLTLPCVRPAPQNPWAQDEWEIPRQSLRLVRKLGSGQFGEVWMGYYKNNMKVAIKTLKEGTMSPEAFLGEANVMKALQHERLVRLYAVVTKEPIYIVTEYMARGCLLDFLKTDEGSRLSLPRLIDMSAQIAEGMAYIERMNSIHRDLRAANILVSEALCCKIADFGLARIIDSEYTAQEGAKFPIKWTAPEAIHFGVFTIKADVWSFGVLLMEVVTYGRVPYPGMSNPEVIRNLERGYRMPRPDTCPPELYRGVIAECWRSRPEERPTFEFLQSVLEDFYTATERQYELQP
protocol.conditions: at 0.1 µM;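 further: reported value is the mean percent inhibition of BLK kinase activity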
metric.name: inhibition (%)

- CCCN(CCS(C)(=O)=O)Cc1ccc(-c2ccc3ncnc(Nc4ccc(OCc5cccc(F)c5)c(Cl)c4)c3c2)o1: 1.35
- CCn1c(-c2nonc2N)nc2c(C#CC(C)(C)O)nc(OC[C@H](N)c3ccccc3)cc21: 3.73
- COc1cc(/C=N/Nc2ncnc3[nH]ncc23)ccc1O: 9.75
- Clc1ccc(-c2nn3ncccc3c2-c2ccnc(Nc3ccccc3)n2)cc1: 3.97
- CCN1CCC(CC(=O)Nc2n[nH]c3nnc(-c4cccc(F)c4F)cc23)CC1: 3.37
- CNC(=O)c1cc(-c2ccc(F)cc2)cc(-c2ccc(S(=O)(=O)N3CCCC3)cc2)c1N: 2.16
- CCN(CC)S(=O)(=O)c1ccc(OC)c(Nc2ncc(-c3ccccc3)o2)c1: 3.51
